Biological target: angiotensin-induced vasoconstriction (rabbit aorta) (Oryctolagus cuniculus, UniProt P34976)
Construct: The thoracic aortas were removed and cleaned of excess fat and connective tissue; from tissue; host or cells: thoracic aorta rings of New Zealand white rabbits (animals from Hazelton)
Sequence (P34976 whole entry): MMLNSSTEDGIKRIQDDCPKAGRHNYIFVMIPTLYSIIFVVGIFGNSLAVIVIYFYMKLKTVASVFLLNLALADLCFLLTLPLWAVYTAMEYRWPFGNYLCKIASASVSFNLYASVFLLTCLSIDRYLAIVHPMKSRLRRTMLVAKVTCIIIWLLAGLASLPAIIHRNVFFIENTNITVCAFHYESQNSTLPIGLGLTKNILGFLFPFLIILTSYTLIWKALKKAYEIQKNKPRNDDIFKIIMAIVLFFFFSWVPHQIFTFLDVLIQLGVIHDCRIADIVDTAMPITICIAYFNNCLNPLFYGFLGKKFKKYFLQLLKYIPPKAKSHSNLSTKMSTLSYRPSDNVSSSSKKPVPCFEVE
Test: Rabbit Aorta Test System: antagonism of angiotensin II contraction of aortic rings
Design: species or system New Zealand white rabbits
Conditions: contraction to AII 10^-10 to 10^-7 M, 30 minutes incubation with compound; pA2 = -log KB
Labelling field: enter True if recorded Kb is less than 10 nM. Enter False if it equals or exceeds that cut-off.

- CCCCCC[C@H](C(=O)N1C[C@@H](Oc2ccc(P(=O)(O)O)cc2)C[C@H]1C(=O)O)n1cnc(NC(=O)c2ccccc2S(=O)(=O)O)c1: True
- O=C(Nc1cn(C(CCCCC(F)(F)F)C(=O)N2C[C@@H](Oc3ccccc3)C[C@H]2C(=O)O)cn1)c1ccccc1S(=O)(=O)O (stereo partly drawn): False
- CCCCCC[C@H](C(=O)N1C[C@@H](Oc2ccc(S(C)(=O)=O)cc2)C[C@H]1C(=O)O)n1cnc(NC(=O)c2ccccc2S(=O)(=O)O)c1: True
- CCCCCC[C@H](C(=O)N1C[C@@H](Oc2ccc(C#N)cc2)C[C@H]1C(=O)O)n1cnc(NC(=O)c2cccc(O)c2C(=O)O)c1: False

Consider the additional compound presented here.
Q. Just wondering, is Kb of CCCCCC[C@H](C(=O)N1C[C@@H](Oc2ccc(OC)cc2)C[C@H]1C(=O)O)n1cnc(NC(=O)c2ccccc2-c2nn[nH]n2)c1 below 10 nM?
A. True

---

Consider the following compounds; for each one, report its log10 Kb.
Molecular target: angiotensin-induced vasoconstriction (rabbit aorta) (Oryctolagus cuniculus, UniProt P34976)
Construct: The thoracic aortas were removed and cleaned of excess fat and connective tissue; from tissue; host or cells: thoracic aorta rings of New Zealand white rabbits (animals from Hazelton)
Experiment: Rabbit Aorta Test System: antagonism of angiotensin II contraction of aortic rings
Parameters: species or system New Zealand white rabbits
Details: contraction to AII 10^-10 to 10^-7 M, 30 minutes incubation with compound; pA2 = -log KB
// units: nM (pre-log); metric: Kb; scale: log10

Worked cases, log10 Kb given:
• CCCCCC[C@H](C(=O)N1C[C@@H](Oc2ccc(C3CCCC3)cc2)C[C@H]1C(=O)O)n1cnc(NC(=O)c2ccccc2S(=O)(=O)O)c1 [Example 26] = 0.40
• CCCCCC[C@H](C(=O)N1C[C@@H](Oc2ccc(CCP(=O)(O)O)cc2)C[C@H]1C(=O)O)n1cnc(NC(=O)c2ccccc2S(=O)(=O)O)c1 [Example 42] = 0.10

Each compound below has a reported value. Please supply its log10 Kb.
1. CCCCCC[C@H](C(=O)N1C[C@@H](Oc2ccc(OC(F)(F)F)cc2)C[C@H]1C(=O)O)n1cnc(NC(=O)c2ccccc2S(=O)(=O)O)c1 [Example 53]
2. CCCCCC[C@H](C(=O)N1C[C@@H](Oc2ccc(C(C)C)cc2)C[C@H]1C(=O)O)n1cnc(NC(=O)c2ccccc2S(=O)(=O)O)c1 [Example 24]
3. CCCCCC[C@H](C(=O)N1C[C@@H](Oc2ccc3oc(C)cc3c2)C[C@H]1C(=O)O)n1cnc(NC(=O)c2ccccc2S(=O)(=O)O)c1 [Example 69]
4. CCCCCC[C@H](C(=O)N1C[C@@H](Oc2ccc3ccccc3c2)C[C@H]1C(=O)O)n1cnc(NC(=O)c2cccc(O)c2C(=O)O)c1 [Example 89]

A.
1: 1.00; 2: 1.40; 3: -0.30; 4: 1.50
